protocol_summary: qHTS assay for small molecule disruptors of the mitochondrial membrane potential (AID 720635)
assay_conditions: HepG2 mitochondrial membrane potential, Mito-MPS dye ratio; series mostly up to 83.2 µM
Inconclusive results are not listed. The source made the active and inactive calls. The call rests on the fitted dose curve; in most records, active means well fitted inhibition curve with a large enough effect in the signal ratio in the repeat runs; inconclusive means weak or mixed curves, or effect the other way; inactive means flat fitted curve, though single readings scatter; the % refers to the signal ratio.
Your answer must be one of the following: label 1 (active), label 0 (inactive)

As a guide, the following entries are already answered.
compound	group_label
CC(Cc1ccc(O)cc1)NCC(O)c1cc(O)cc(O)c1 (centres undefined)	label 0
CN(C)CCc1c[nH]c2ccccc12	label 0
Cc1cccc(Cc2cnc[nH]2)c1C	label 0
CC(C)=CCN1CC[C@@]2(C)c3cc(O)ccc3C[C@@H]1[C@@H]2C	label 0
CC[C@H](C)[C@H]1O[C@]2(C=C[C@@H]1C)C[C@@H]1C[C@@H](C/C=C(\C)[C@@H](O[C@H]3C[C@H](OC)[C@@H](O[C@H]4C[C@H](OC)[C@@H](NC)[C@H](C)O4)[C@H](C)O3)[C@@H](C)/C=C/C=C3\CO[C@@H]4[C@H](O)C(C)=C[C@@H](C(=O)O1)[C@]34O)O2	label 1
ClSC(Cl)(Cl)Cl	label 0

Data request: I'd appreciate the recorded outcome for `CCOP(=O)(OCC)Oc1nc(Cl)c(Cl)cc1Cl` from this test.
Data returned: label 1
